meta.source: PubChem BioAssay AID1159580

Record form. Attribute: normalized growth. Fill in for each entry.
# method: chemical genetic growth profiling, strain panel (AID 1159580);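 also: tested at 20 µM; growth read once vehicle control cultures reached saturation at 30 °C; 1 = growth at the plate median or of vehicle wells; lower values mean less growth of the strain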
# measurement_conditions: S. cerevisiae deletion strains, growth OD, locus YMR263W, strain SAP30, active compounds read low
Among all 5,500 compounds or so, about 2,000 (36%) were called active. Inconclusive results (about 18%) are left out. Some of the results follow.
One number for each entry.

Solved cases below.
O=C(O)C1C2CCC1C(O)C2 (stereo unspecified)
0.998
O=C(O)c1cccnc1
1.01
CN=C(NC#N)Nc1ccc(C2=NNC(=O)CC2C)cc1 (stereo unspecified)
1
N/C(Cc1cccc2ccccc12)=N/O
1.04

Please supply normalized growth for each of the following items, keeping them in order.
1. Cc1c(C)c2c(c(C)c1O)CCC(C)(CCCC(C)CCCC(C)CCCC(C)C)O2 (stereo unspecified)
2. COC(=O)c1c(OC)cc2c(c1C)Oc1c(Cl)c(OC(C)=O)c(Cl)c(C)c1C(=O)O2
3. CCCc1cc(=O)[nH]c(=S)[nH]1
4. c1ccc(-c2nc(-c3cccs3)cs2)cc1
5. CC(C)CCCC(C)[C@H]1CCC2C3CC=C4C[C@@H](O)CC[C@]4(C)C3CC[C@@]21C (stereo partly specified)
6. c1ccc(CN2CCC(n3nnc4cccnc43)CC2)cc1
7. O=C(NCO)c1cccnc1
8. C(=C(c1ccccc1)c1ccccc1)N1CCC1

Response:
1: 1.01; 2: 1.02; 3: 1.02; 4: 0.931; 5: 1.02; 6: 1.01; 7: 0.999; 8: 0.987

Please supply normalized growth for each of the following items, keeping them in order.
1. CCN1CCN(C(=O)NC(C(=O)N[C@@H]2C(=O)N3[C@@H]2SC(C)(C)[C@@H]3C(=O)O)c2ccccc2)C(=O)C1=O (stereo partly specified)
2. N/C(=N/OC(=O)c1ccccc1)c1ccc(-c2csnn2)cc1
3. Clc1cncc(Cl)c1N/N=C\C1CC2C=CC1C2 (stereo unspecified)
4. O=C1c2ccccc2C(=O)N1CN(CCSc1ccccc1)CN1C(=O)c2ccccc2C1=O

Response:
1. 1.01
2. 1.03
3. 0.939
4. 1.01

---

Record form. Attribute: normalized growth. Fill in for each entry.
# method: chemical genetic growth profiling, strain panel (AID 1159580);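 also: tested at 20 µM; growth read once vehicle control cultures reached saturation at 30 °C; 1 = growth at the plate median or of vehicle wells; lower values mean less growth of the strain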
# measurement_conditions: S. cerevisiae deletion strains, growth OD, locus YLR418C, strain cdc73, active compounds read low
The campaign covered roughly 5,500 compounds. About 2,000 (36%) were called active. About 18% were inconclusive and are not listed. This is one part of the list.
Give bare numbers.

Solved cases below.
CN(C)C(=O)Oc1cccc([N+](C)(C)C)c1
0.972
CC(C)CCCC(C)[C@H]1CCC2C3CC=C4C[C@@H](O)CC[C@]4(C)C3CC[C@@]21C (stereo partly drawn)
1

Please supply normalized growth for each of the following items, keeping them in order.
1. NS(=O)(=O)c1cc2c(cc1Cl)NC(CSCc1ccccc1)=NS2(=O)=O
2. CC(=O)O[C@H]1CC[C@@]2(C)C(=CC(=O)C3C4CCC(C(C)CCCC(C)C)[C@@]4(C)CCC32)C1 (stereo partly drawn)
3. CS(=O)(=O)c1ccc([C@@H](O)[C@@H](CO)NC(=O)C(Cl)Cl)cc1
4. CCCc1cc(=O)[nH]c(=S)[nH]1
5. CC(C)CC(NC(=O)OCC1c2ccccc2-c2ccccc21)C(=O)O (stereo not drawn)
6. CC(Cc1cccc(C(F)(F)F)c1)NCCOC(=O)c1ccccc1 (stereo not drawn)
7. NCC(N)C(=O)c1ccccc1 (stereo not drawn)
8. CC(=O)Oc1ccc(C(c2ccc(OC(C)=O)cc2)c2ccccn2)cc1

Response:
0.994
1.02
0.98
1
1
0.978
0.987
0.999

Please supply normalized growth for each of the following items, keeping them in order.
1. NCC(=O)c1ccccc1
2. Cc1cc(=O)[nH]c(=S)[nH]1
3. CCCc1c(OCCCCc2nn[nH]n2)ccc(C(C)=O)c1O

Response:
[1, 1.02, 0.984]
